- test.protocol: Pharmacokinetic (PK) assay in mice
- Type: in vivo
- measurement.context: mouse, plasma; IV 1 mg/kg, CD-1 mice
Consider the following compounds; for each one, report its Cmax.
One number for each entry, in ng/mL.

CCS(=O)(=O)c1ccc(C(COC)C(=O)Nc2cc(Cl)c(-c3ccc(S(=O)(=O)C4CC4)cc3)c(Cl)c2)cc1 (single isomer, unassigned) [Example 41] ... 601

Report Cmax for each item below.
1. CCS(=O)(=O)c1ccc(-c2c(Cl)cc(NC(=O)Cc3ccc(S(=O)(=O)CC)cn3)cc2Cl)cc1
2. CCS(=O)(=O)c1ccc(-c2c(Cl)cc(NC(=O)C(COC)c3ccc(S(C)(=O)=O)cc3)cc2Cl)cc1 (stereo not drawn)
3. CCS(=O)(=O)c1ccc(C(COC)C(=O)Nc2cc(Cl)c(-c3ccc(S(=O)(=O)C4CC4)cc3)c(Cl)c2)cc1 (stereo not drawn) [Example 16]

output:
1: 1360; 2: 932; 3: 1170

* * *

- target.of.assay: RORγt (RORγ-LBD chimeric receptor) (Homo sapiens, UniProt P51449)
- Construct: host or cells: HEK293T
- Sequence (P51449 269-508 limits assumed): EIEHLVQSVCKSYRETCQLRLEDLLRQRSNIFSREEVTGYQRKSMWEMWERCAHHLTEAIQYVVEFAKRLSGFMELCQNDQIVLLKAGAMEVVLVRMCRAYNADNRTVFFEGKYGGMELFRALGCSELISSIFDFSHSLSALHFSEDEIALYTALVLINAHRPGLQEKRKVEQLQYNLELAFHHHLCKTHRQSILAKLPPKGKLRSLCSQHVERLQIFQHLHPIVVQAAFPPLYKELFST
- test.protocol: Luciferase reporter gene assay of RORγt agonistic activity in HEK293T cells
- Assay type: cell-based
- measurement.context: HEK293T, GAL4 luciferase reporter; read-out: EC50
measured.property: pEC50
Give bare numbers, as −log10 of the molar value.

CCS(=O)(=O)c1ccc(CC(=O)Nc2cc(Cl)c(-c3ccc(S(C)(=O)=O)cc3)c(Cl)c2)nc1 ... 7.36
COCC(C(=O)Nc1ccc(-c2ccc(S(=O)(=O)C3CC3)cc2)c(C(F)(F)F)c1)c1ccc(S(C)(=O)=O)cc1 (stereo not drawn) [Example 42] ... 6.98

# ---- query compound ----
input: State pEC50 on RORγt (RORγ-LBD chimeric receptor) (Homo sapiens, UniProt P51449). Entry: CCS(=O)(=O)c1ccc(C(CO)C(=O)Nc2cc(Cl)c(-c3ccc(S(=O)(=O)C4CC4)cc3)c(Cl)c2)cc1 (single isomer, unassigned) [Example 38]
output: 6.91

* * *

Consider the following molecules; for each one, report its % Remaining (T = 60 min).
- test.protocol: Metabolic stability in human liver microsomes
- Assay type: in vitro ADME
- measurement.context: 60 min
Numbers only, in %.

CCS(=O)(=O)c1ccc(CC(=O)Nc2cc(Cl)c(-c3ccc(S(=O)(=O)C4CC4)cc3)c(Cl)c2)cc1 ... 82
COCC(C(=O)Nc1cc(Cl)c(-c2ccc(S(=O)(=O)C3CC3)cc2)c(Cl)c1)c1ccc(S(C)(=O)=O)cc1 (stereo not drawn) [Example 20] ... 53.9

# ---- query molecule ----
input: Specify % Remaining (T = 60 min) for CCS(=O)(=O)c1ccc(C(COC)C(=O)Nc2cc(Cl)c(-c3ccc(S(=O)(=O)C4CC4)cc3)c(Cl)c2)cc1 (stereo not drawn) [Example 16] and stop.
output: 100.7

* * *

Consider the following compounds; for each one, report its microsomal CLint.
- test.protocol: Metabolic stability in mouse liver microsomes
- Type: in vitro ADME, CD-1 mice
- measurement.context: CD-1, 0.5 mg protein/mL

Consider the reported microsomal CLint for these compounds:
COCC(C(=O)Nc1cc(Cl)c(-c2ccc(S(=O)(=O)C3CC3)cc2)c(Cl)c1)c1ccc(S(C)(=O)=O)cc1 (single isomer, unassigned) [Example 34] ... < 9.6 µL/min/mg
CS(=O)(=O)c1ccc(C(CO)C(=O)Nc2cc(Cl)c(-c3ccc(S(=O)(=O)C4CC4)cc3)c(Cl)c2)cc1 (single isomer, unassigned) ... < 9.6 µL/min/mg

input: Specify microsomal CLint for CS(=O)(=O)c1ccc(CC(=O)Nc2cc(Cl)c(-c3ccc(S(=O)(=O)C4CC4)cc3)c(Cl)c2)cc1 and stop.
output: < 9.6 µL/min/mg

* * *

- test.protocol: Metabolic stability in human liver microsomes
- Type: in vitro ADME
Consider the following compounds; for each one, report its half-life.
Give bare numbers, in h.

COCC(C(=O)Nc1cc(Cl)c(-c2ccc(S(C)(=O)=O)cc2)c(Cl)c1)c1ccc(S(=O)(=O)CC2CC2)cc1 (stereo not shown) ... 0.192
CCS(=O)(=O)c1ccc(-c2c(Cl)cc(NC(=O)C(COC)c3ccc(S(=O)(=O)CC)cc3)cc2Cl)cc1 (stereo not shown) ... 2.07
CCS(=O)(=O)c1ccc(CC(=O)Nc2cc(Cl)c(-c3ccc(S(=O)(=O)CC)cc3)c(Cl)c2)cc1 ... 0.697
COCC(C(=O)Nc1cc(Cl)c(-c2ccc(S(=O)(=O)C3CC3)cc2)c(Cl)c1)c1ccc(S(C)(=O)=O)cc1 (single isomer, unassigned) [Example 34] ... 1.48
COCC(C(=O)Nc1cc(Cl)c(-c2ccc(S(=O)(=O)C3CC3)cc2)c(Cl)c1)c1ccc(S(C)(=O)=O)cc1 (stereo not shown) [Example 20] ... 1.34

Report half-life for each item below.
1. CS(=O)(=O)c1ccc(-c2c(Cl)cc(NC(=O)Cc3ccc(S(=O)(=O)CCO)cc3)cc2Cl)cc1
2. CCS(=O)(=O)c1ccc(-c2c(Cl)cc(NC(=O)C(COC)c3ccc(S(C)(=O)=O)cc3)cc2Cl)cc1 (stereo not shown)

output:
1. 1.55
2. 1.78

* * *

- target.of.assay: GST-RORγ LBD (263-509) (Homo sapiens, UniProt P51449)
- Construct: GST-RORγ LBD ((263-509) (produced at ChemPartner))
- test.protocol: TR-FRET assay of agonistic activity on RORγ receptor
- measurement.context: TR-FRET, GST-RORγ LBD with Biotin-SRC1
- Description: A time-resolved fluorescence resonance energy transfer (TR-FRET) assay was used for the compounds of the present disclosure, to determine the agonistic activity of the compounds on the RORγ protein receptor. […] a. […] Data were read on an Envision microplate reader, EC50 values and E max % were calculated. a. Readings were taken at 665 nm and 615 nm wavelengths respectively on the Envision Microplate Reader, and the ratios between them were normalized. b. […]
Consider the following molecules; for each one, report its pEC50.
One number for each entry, as −log10 of the molar value.

CCS(=O)(=O)c1ccc(-c2c(Cl)cc(NC(=O)C(COC)c3ccc(S(=O)(=O)CC)cc3)cc2Cl)cc1 (stereo not shown) [Example 13] ... 7.92
CCS(=O)(=O)c1ccc(C(COC)C(=O)Nc2cc(Cl)c(-c3ccc(S(=O)(=O)C4CC4)cc3)c(Cl)c2)cc1 (single isomer, unassigned) [Example 40] ... 8.00
CCS(=O)(=O)c1ccc(CC(=O)Nc2cc(Cl)c(-c3ccc(S(C)(=O)=O)cc3)c(Cl)c2)nc1 [Example 8] ... 8.00

# ---- query molecule ----
input: State pEC50 on GST-RORγ LBD (263-509) (Homo sapiens, UniProt P51449). Entry: CCS(=O)(=O)c1ccc(CC(=O)Nc2cc(Cl)c(-c3ccc(S(C)(=O)=O)cc3)c(Cl)c2)cc1 [Example 2]
output: 8.04

* * *

Consider the following compounds; for each one, report its half-life.
- test.protocol: Metabolic stability in mouse liver microsomes
- Format: in vitro ADME, CD-1 mice
- measurement.context: CD-1
One number for each entry, in h.

Consider the reported half-life for these compounds:
CCS(=O)(=O)c1ccc(-c2c(Cl)cc(NCC(C(=O)O)c3ccc(S(=O)(=O)CC)cc3)cc2Cl)cc1 (stereo not drawn) ... 2.11
COCC(C(=O)Nc1cc(Cl)c(-c2ccc(S(=O)(=O)C3CC3)cc2)c(Cl)c1)c1ccc(S(C)(=O)=O)cc1 (stereo not drawn) [Example 20] ... 2.21

# ---- query compound ----
input: Specify half-life for CCS(=O)(=O)c1ccc(C(COC)C(=O)Nc2cc(Cl)c(-c3ccc(S(=O)(=O)C4CC4)cc3)c(Cl)c2)cc1 (single isomer, unassigned) [Example 40] and stop.
output: 1.95

* * *

- test.protocol: Metabolic stability in mouse liver microsomes
- Assay type: in vitro ADME, CD-1 mice
- measurement.context: 60 min
Would you please tag the item met when its % Remaining (T = 60 min) is 70% or above, and not met when it is below?

Completed entries (count: 3):
CS(=O)(=O)c1ccc(-c2c(Cl)cc(NC(=O)Cc3ccc(S(C)(=O)=O)cn3)cc2Cl)cc1 [Example 10] ... met
CCS(=O)(=O)c1ccc(-c2c(Cl)cc(NC(=O)Cc3ccc(S(C)(=O)=O)cn3)cc2Cl)cc1 [Example 9] ... not met
CS(=O)(=O)c1ccc(-c2c(Cl)cc(NC(=O)Cc3ccc(S(=O)(=O)CCO)cc3)cc2Cl)cc1 [Example 14] ... met

input: Could you verify whether the entry CCS(=O)(=O)c1ccc(CC(=O)Nc2cc(Cl)c(-c3ccc(S(=O)(=O)CC)cc3)c(Cl)c2)cc1 [Example 1] shows % Remaining (T = 60 min) of no less than 70%?
output: not met

input: Could you verify whether the entry COCC(C(=O)Nc1cc(Cl)c(-c2ccc(S(C)(=O)=O)cc2)c(Cl)c1)c1ccc(S(=O)(=O)CC2CC2)cc1 (stereo not shown) [Example 18] shows % Remaining (T = 60 min) of no less than 70%?
output: not met

input: Could you verify whether the entry CCS(=O)(=O)c1ccc(CC(=O)Nc2cc(Cl)c(-c3ccc(S(C)(=O)=O)cc3)c(Cl)c2)cc1 [Example 2] shows % Remaining (T = 60 min) of no less than 70%?
output: met

Just for reference, patent US20220402867A1 is where these values come from.
